Target: Galectin-9 (Homo sapiens, UniProt O00182)
Sequence (O00182 whole entry): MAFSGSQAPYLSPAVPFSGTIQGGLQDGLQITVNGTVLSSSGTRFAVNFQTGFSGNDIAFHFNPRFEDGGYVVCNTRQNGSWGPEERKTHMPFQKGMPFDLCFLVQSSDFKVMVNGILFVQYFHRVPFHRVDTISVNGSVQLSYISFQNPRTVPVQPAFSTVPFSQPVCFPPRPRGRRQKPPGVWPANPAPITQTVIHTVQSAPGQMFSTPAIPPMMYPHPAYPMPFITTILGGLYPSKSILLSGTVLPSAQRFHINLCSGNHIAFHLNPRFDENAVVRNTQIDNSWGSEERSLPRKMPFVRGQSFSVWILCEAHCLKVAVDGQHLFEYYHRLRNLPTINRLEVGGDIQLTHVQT
Test: Binding affinity at recombinant human C-terminal Galectin 9 expressed in Escherichia coli BL21 incubated for 5 mins by fluorescence anisotropy assay
Conditions: read-out: Kd
Field: pKd. Provide a value for each of the compounds that follow.
Give bare numbers, as −log10 of the molar value.

query: Suppose we examine the compound CO[C@@H]1O[C@H](CO)[C@H](O)[C@H](Nc2ccc(F)c(F)c2)[C@H]1O ; what pKd value has been reported?
result: 3.66

query: Suppose we examine the compound CO[C@@H]1O[C@H](CO)[C@H](O)[C@H](Nc2ccc(C)cc2)[C@H]1O ; what pKd value has been reported?
result: 3.11

query: Suppose we examine the compound Cc1ccc(N[C@@H]2[C@@H](O)[C@@H](Sc3ccc(Cl)c(Cl)c3)O[C@H](CO)[C@@H]2O)cc1C ; what pKd value has been reported?
result: 5.24

query: Suppose we examine the compound CO[C@@H]1O[C@H](CO)[C@H](O)[C@H](O)[C@H]1O ; what pKd value has been reported?
result: 2.07

query: Suppose we examine the compound CO[C@@H]1O[C@H](CO)[C@H](O)[C@H](Nc2ccccc2)[C@H]1O ; what pKd value has been reported?
result: 3.17

# per-item lookup of pKd; items listed below
1. COc1cccc(N[C@H]2[C@@H](O)[C@@H](CO)O[C@@H](OC)[C@@H]2O)c1
2. COc1cccc(N[C@@H]2[C@@H](O)[C@@H](Sc3ccc(Cl)c(Cl)c3)O[C@H](CO)[C@@H]2O)c1
3. OC[C@H]1O[C@H](Sc2ccc(Cl)c(Cl)c2)[C@H](O)[C@@H](Nc2cccc(Cl)c2)[C@H]1O
4. CO[C@@H]1O[C@H](CO)[C@H](O)[C@H](Nc2ccc(C)c(C)c2)[C@H]1O

result:
1. 3.85
2. 4.82
3. 5.34
4. 3.89
